Listed below: growth values for each entry.
Tested on: TK-10 renal
Experiment: NCI-60 one-dose screen, 48 h (100 = growth as untreated, 0 = no growth, -100 = all killed)
Settings: 10 µM unless noted
Compounds without any hit were thinned out: in the full panel of roughly 83,000, 20% have a hit.

>  <compound>
COc1ccccc1/C=C1\Oc2cc(OCCN3CCCC3)ccc2C1=O

>  <growth [%]>
97.9

$$$$
>  <compound>
O=C1/C=C/[C@@H](O)[C@@H]2C[C@@H](O)C[C@H]2/C=C/CCC[C@H](CCc2cccc3ccccc23)O1

>  <growth [%]>
-0.338

$$$$
>  <compound>
O=S(=O)(NCCNc1nccc(-c2c(-c3cccc(O)c3)nc3occn23)n1)c1ccc(Cl)cc1

>  <growth [%]>
143

$$$$
>  <compound>
COc1cc(/C=C/c2cc(O)c(C(C)=O)c(O)c2)cc2c1O[C@]1(C)CC[C@@H](O)C(C)(C)[C@H]1C2

>  <growth [%]>
94.7

$$$$
>  <compound>
COc1cccc(-c2nc3occn3c2-c2ccnc(NCCCNS(=O)(=O)c3ccc(C(F)(F)F)cc3)n2)c1

>  <growth [%]>
106

$$$$
>  <compound>
COc1cc2c(c(OC)c1OC)CCC(c1cccc(NC(=O)c3cccc(Br)c3)c1)O2 (stereo not drawn)

>  <growth [%]>
91.8

$$$$
>  <compound>
COc1ccc(NC(=O)c2cc(NCc3cc(O)ccc3O)ccc2O)cc1

>  <growth [%]>
118

$$$$
>  <compound>
CCC(=O)Oc1ccc(/C(=C(\C)c2ccccc2)c2ccc(OCCN3CCCCC3)cc2)cc1

>  <growth [%]>
84.2

$$$$
>  <compound>
O=C(/C=C(/C=C/c1csc2ccccc12)OB(F)F)/C=C/c1csc2ccccc12

>  <growth [%]>
23.7

$$$$
>  <compound>
COc1ccc(-c2nc([C@@H](C)Sc3nc(N)cc(N)n3)c(C)s2)cc1OCCN1CCOCC1

>  <growth [%]>
104

$$$$
>  <compound>
COc1cc(/C=C\c2cc(OC)c(OC)c(OC)c2)cc(N)c1OC

>  <growth [%]>
95.9

$$$$
>  <compound>
COc1cc(/C(C)=C(\c2ccc(Cl)cc2)c2ccc(OCCN(C)C)cc2)ccc1F

>  <growth [%]>
72.1

$$$$
>  <compound>
CCCN1[C@@H]2CC[C@H]1/C(=C\c1ccc(OC)c(OC)c1)C(=O)/C2=C/c1ccc(OC)c(OC)c1

>  <growth [%]>
67.2

$$$$

// data source = PubChem BioAssay (NCI)
